Quick note: these are IC50 numbers for system: Neuropeptide Y receptor type 1 (Homo sapiens)
Sequence (P25929 whole entry): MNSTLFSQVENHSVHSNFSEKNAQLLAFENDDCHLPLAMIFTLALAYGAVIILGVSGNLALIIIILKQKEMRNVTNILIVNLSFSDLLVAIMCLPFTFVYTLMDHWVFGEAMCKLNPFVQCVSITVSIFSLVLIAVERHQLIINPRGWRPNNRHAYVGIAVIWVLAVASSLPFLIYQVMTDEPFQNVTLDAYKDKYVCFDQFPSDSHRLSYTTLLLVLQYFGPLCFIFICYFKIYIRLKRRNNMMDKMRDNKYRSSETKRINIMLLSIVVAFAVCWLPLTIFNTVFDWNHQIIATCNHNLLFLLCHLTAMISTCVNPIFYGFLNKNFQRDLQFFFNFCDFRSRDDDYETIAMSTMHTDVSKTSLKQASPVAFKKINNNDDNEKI
Quick note: give the figure in µM, leave out the unit.

Molecule	System Under Test	IC50 (µM)
O=S(=O)(NCCN1CCC(CNC2CCCc3ccc(Cl)cc3C2)CC1)c1cccc2ccccc12 (stereo unspecified)	Neuropeptide Y receptor type 1 (Homo sapiens)	8.5
COc1cc2c(cc1OC)CC(NCC1CCN(CCNS(=O)(=O)c3cccc4ccccc34)CC1)CCC2 (stereo unspecified)	Neuropeptide Y receptor type 1 (Homo sapiens)	17
COc1ccc2c(c1)CC(CNCC1CCN(CCNS(=O)(=O)c3cccc4ccccc34)CC1)CCC2 (stereo unspecified)	Neuropeptide Y receptor type 1 (Homo sapiens)	9.6
O=[N+]([O-])c1ccc2c(c1)CC(NCC1CCN(CCNS(=O)(=O)c3cccc4ccccc34)CC1)CCC2 (stereo unspecified)	Neuropeptide Y receptor type 1 (Homo sapiens)	15
O=S(=O)(NC[C@H]1CC[C@@H](CNCC2CCc3ccccc3C2)CC1)c1cccc2ccccc12 (stereo partly specified)	Neuropeptide Y receptor type 1 (Homo sapiens)	1.3

Fill in reported IC50 for this entry: COc1ccc2c(c1)CC(NCCN1CCC(CNS(=O)(=O)c3cccc4ccccc34)CC1)CCC2 (stereo unspecified)
19
